- tgt: β-lactoglobulin (BLG) (Bos taurus, UniProt P02754)
- Construct: purchased Sigma–Aldrich Co. (St. Louis, MO, USA)
- assayNotes: Intrinsic fluorescence quenching of BLG by Bai/Chr (Stern–Volmer and double logarithmic equations)
- Type: binding
- assaySetup: Ka (binding constant), T = 298 K, pH 6.8
quantityMeasured: pKd
Please treat pKd as minus the base-10 logarithm of the molar concentration.

Query: Item O=c1cc(-c2ccccc2)oc2cc(O)cc(O)c12 [Chr, chrysin] has what recorded pKd?
Reply: 5.33

###

- tgt: β-lactoglobulin (BLG) (Bos taurus)
- Construct: purchased Sigma–Aldrich Co. (St. Louis, MO, USA)
- Sequence (P02754 17-178): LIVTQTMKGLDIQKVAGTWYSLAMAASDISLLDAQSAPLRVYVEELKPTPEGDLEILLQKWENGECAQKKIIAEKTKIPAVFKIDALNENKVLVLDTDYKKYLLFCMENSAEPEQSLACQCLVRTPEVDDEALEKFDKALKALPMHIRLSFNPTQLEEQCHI
- assayNotes: Intrinsic fluorescence quenching of BLG by Bai/Chr (Stern–Volmer and double logarithmic equations)
- Type: binding
- assaySetup: Ka (binding constant), T = 304 K, pH 6.8
quantityMeasured: pKd
Please treat pKd as minus the base-10 logarithm of the molar concentration.

Query: What measured pKd is associated with "O=c1cc(-c2ccccc2)oc2cc(O)cc(O)c12" on β-lactoglobulin (BLG) (Bos taurus)?
Reply: 5.32

The reported measurements were obtained from paper PMC8774648.
